Each entry below lists one item and its recorded Caco2 Papp (10^-6 cm/sec) value.
System: Caco-2 cells
Assay: Membrane permeability test using Caco-2 cells with preincubation
Assay type: in vitro ADME
Conditions: Caco-2 cells, preincubation 20 to 24 hours; apical FaSSIF/HBSS 1% DMSO pH 6.0, basal HBSS 4% BSA pH 7.4; basal sample at 180 minutes
Positions of bridges follow the written chain, without caps; N, C: chain ends. Non-standard residues stand in square brackets, D forms with d. Residues, ends and D or L forms follow the SMILES beside them. *: point of attachment. NMeF = CN[C@@H](Cc1ccccc1)C(=O)O; NMeI = CC[C@H](C)[C@H](NC)C(=O)O; NMeT = CN[C@H](C(=O)O)[C@@H](C)O; NMeD = CN[C@@H](CC(=O)O)C(=O)O; NMeL = CN[C@@H](CC(C)C)C(=O)O; NMeV = CN[C@H](C(=O)O)C(C)C; NMeA = CN[C@@H](C)C(=O)O; Piperidide = C1CCN(*)CC1; Abu = CC[C@H](N)C(=O)O; NBuGly = CCCCNCC(=O)O; Sar = CNCC(=O)O

Below, 3 molecules whose answers are already recorded.
molecule: CCCCN1CC(=O)N[C@@H]([C@@H](C)CC)C(=O)N(C)[C@@H](CC(C)C)C(=O)N[C@H](C(=O)N2CCCCC2)CC(=O)N(C)[C@@H](C)C(=O)N(C)[C@@H](CC(C)C)C(=O)N[C@@H]([C@@H](C)O)C(=O)N(C)[C@@H](Cc2ccccc2)C(=O)N[C@@H](CC)C(=O)N(C)[C@@H](Cc2ccccc2)C(=O)N[C@@H](CC(C)C)C(=O)N(C)[C@@H]([C@@H](C)CC)C(=O)N[C@@H](CC(C)C)C1=O [pd103] ([NMeA][NMeL]T[NMeF][Abu][NMeF]L[NMeI]L[NBuGly]I[NMeL]D-Piperidide; lactam N-13)
Caco2 Papp (10^-6 cm/sec): 0.08 10^-6 cm/sec

molecule: CC[C@@H]1NC(=O)[C@H](Cc2ccccc2)N(C)C(=O)[C@H](CC(C)C)N(C)C(=O)[C@H](CC(C)C)NC(=O)[C@H](C)N(C)C(=O)C[C@@H](C(=O)N2CCCCC2)N(C)C(=O)[C@H](CC(C)C)N(C)C(=O)[C@H]([C@@H](C)CC)NC(=O)[C@H](Cc2ccccc2)N(C)C(=O)[C@H]([C@@H](C)O)N(C)C(=O)[C@H]([C@@H](C)CC)N(C)C(=O)[C@H](CC(C)C)NC(=O)CN(C)C1=O [pd163] ([NMeA]L[NMeL][NMeF][Abu][Sar]L[NMeI][NMeT][NMeF]I[NMeL][NMeD]-Piperidide; lactam N-13)
Caco2 Papp (10^-6 cm/sec): 0.04 10^-6 cm/sec

molecule: CC[C@@H]1NC(=O)[C@H](Cc2ccccc2)N(C)C(=O)[C@H](CC(C)C)NC(=O)CNC(=O)[C@H]([C@@H](C)O)N(C)C(=O)[C@H](CC(C)C)N(C)C(=O)[C@H]([C@@H](C)CC)NC(=O)[C@H](Cc2ccccc2)N(C)C(=O)CN(C)C(=O)C[C@@H](C(=O)N2CCCCC2)NC(=O)[C@H](C(C)C)N(C)C(=O)[C@H](CC(C)C)NC(=O)[C@H](C)N(C)C1=O [pd105] ([Sar][NMeF]I[NMeL][NMeT]GL[NMeF][Abu][NMeA]L[NMeV]D-Piperidide; lactam N-13)
Caco2 Papp (10^-6 cm/sec): 0.11 10^-6 cm/sec

For this molecule ( CC[C@@H]1NC(=O)[C@@H]2CCCN2C(=O)[C@H](C(C)C)NC(=O)[C@H](Cc2ccccc2)N(C)C(=O)[C@H](C)N(C)C(=O)[C@H](CC(C)C)N(C)C(=O)[C@H]([C@@H](C)O)N(C)C(=O)[C@H](CC(C)C)N(C)C(=O)[C@H](CC)NC(=O)[C@H](Cc2ccccc2)N(C)C(=O)CN(C)C(=O)C[C@@H](C(=O)N2CCCCC2)NC(=O)[C@H](C(C)C)N(C)C1=O [pd122] ([Sar][NMeF][Abu][NMeL][NMeT][NMeL][NMeA][NMeF]VP[Abu][NMeV]D-Piperidide; lactam N-13) ), measured Caco2 Papp (10^-6 cm/sec) is 0.06 10^-6 cm/sec

====

Test: Metabolic stability test: liver microsomal stability assay
Type: in vitro ADME, mouse
Conditions: male, pH 7.4; mouse liver microsomes 0.5 mg protein/mL, compound 1 µM, presence of NADPH; read-out: Mouse Hepatic Microsome CLh,int NADPH(+)
Starred links: 1 amine or outer side, 2 acyl side, 3 side chain; linkers in the order of their positions; H or OH if unused. Positions of bridges follow the written chain, without caps; N, C: chain ends. Non-standard residues stand in square brackets, D forms with d. Residues, ends and D or L forms follow the SMILES beside them. *: point of attachment. NMedβ3hAla = C[C@H](CC(=O)[*:2])N(C)[*:1]; NMeF = CN[C@@H](Cc1ccccc1)C(=O)O; NMeT = CN[C@H](C(=O)O)[C@@H](C)O; hPhe = N[C@@H](CCc1ccccc1)C(=O)O; NMeβAla = CN(CCC(=O)[*:2])[*:1]; NMeL = CN[C@@H](CC(C)C)C(=O)O; NMeV = CN[C@H](C(=O)O)C(C)C; d(β3hA) = C[C@@H](N)CC(=O)O; NMeAbu = CC[C@H](NC)C(=O)O; NMeA = CN[C@@H](C)C(=O)O; Piperidide = C1CCN(*)CC1; Abu = CC[C@H](N)C(=O)O; Sar = CNCC(=O)O; tBu = CC(C)(C)*
For each record, check the reported microsomal CLint at 1 µM: if it is below 30 µL/min/mg write Criterion met, else write Criterion not met.

Illustrative cases are given below, each with its answer.
molecule: CC[C@@H]1NC(=O)[C@H](CC(C)C)N(C)C(=O)[C@H]([C@@H](C)CC)NC(=O)[C@H](CC(C)C)N(C)C(=O)C[C@@H](C)NC(=O)[C@H](C(C)C)N(C)C(=O)[C@H](CC(C)C)NC(=O)[C@H](CC)N(C)C(=O)[C@H](Cc2ccccc2)N(C)C(=O)[C@@H]2CCCN2C(=O)[C@H](CC(C)C)NC(=O)[C@H]([C@@H](C)O)N(C)C(=O)[C@H](CC(C)C)N(C)C1=O [pd135] (cyclo([Abu][NMeL][NMeT]LP[NMeF][NMeAbu]L[NMeV][d(β3hA)][NMeL]I[NMeL]))
group: Criterion not met
--
molecule: CC[C@H](C)[C@@H]1NC(=O)[C@H](CC(C)C)N(C)C(=O)[C@H](CC(C)C)NC(=O)[C@H](C)N(C)C(=O)[C@H](Cc2ccccc2)N(C)C(=O)[C@@H]2CCCN2C(=O)[C@H](CC(C)C)N(C)C(=O)[C@H](CCc2ccccc2)NC(=O)CCN(C)C(=O)C[C@@H](C)NC(=O)[C@H](CC(C)C)N(C)C(=O)[C@H]([C@@H](C)O)NC(=O)[C@H](C)N(C)C(=O)[C@H](C(C)C)N(C)C1=O [pd056] (cyclo(I[NMeV][NMeA]T[NMeL][d(β3hA)][NMeβAla][hPhe][NMeL]P[NMeF][NMeA]L[NMeL]))
group: Criterion not met
--
molecule: CC[C@H]1C(=O)N[C@@H](COC(C)(C)C)C(=O)N(C)[C@@H](C(C)C)C(=O)N(C)[C@@H](C)C(=O)N(C)[C@H](C)CC(=O)N[C@H](C(C)C)C(=O)N(C)[C@@H](CC(C)C)C(=O)N[C@@H](C)C(=O)N(C)[C@@H](C(C)C)C(=O)N(C)[C@@H](CC(C)C)C(=O)NCC(=O)N(C)[C@@H]([C@@H](C)O)C(=O)N(C)[C@@H](Cc2ccccc2)C(=O)N1C [pd147] (cyclo(A[NMeV][NMeL]G[NMeT][NMeF][NMeAbu]S(tBu)[NMeV][NMeA][NMedβ3hAla][dV][NMeL]))
group: Criterion met
--
molecule: CC[C@@H]1NC(=O)[C@H](Cc2ccccc2)N(C)C(=O)[C@H](CC(C)C)NC(=O)CNC(=O)[C@H]([C@@H](C)O)N(C)C(=O)[C@H](CC(C)C)N(C)C(=O)[C@H]([C@@H](C)CC)NC(=O)[C@H](Cc2ccccc2)N(C)C(=O)CN(C)C(=O)C[C@@H](C(=O)N2CCCCC2)NC(=O)[C@H](C(C)C)N(C)C(=O)[C@H](CC(C)C)NC(=O)[C@H](C)N(C)C1=O [pd105] ([Sar][NMeF]I[NMeL][NMeT]GL[NMeF][Abu][NMeA]L[NMeV]D-Piperidide; lactam N-13)
group: Criterion met

Here's an entry: CC[C@@H]1NC(=O)[C@H](C(C)C)N(C)C(=O)[C@H](CC(C)C)NC(=O)[C@H](CC(C)C)N(C)C(=O)[C@H]([C@@H](C)O)NC(=O)CN(C)C(=O)[C@H]([C@@H](C)CC)NC(=O)[C@H](Cc2ccccc2)N(C)C(=O)[C@H](CC(C)C)N(C)C(=O)C[C@@H](C(=O)N2CCCCC2)NC(=O)[C@H](Cc2ccccc2)N(C)C(=O)[C@H](COC(C)(C)C)NC(=O)[C@@H]2CCCN2C(=O)[C@H]([C@@H](C)CC)NC1=O [pd031] ([NMeL][NMeF]I[Sar]T[NMeL]L[NMeV][Abu]IPS(tBu)[NMeF]D-Piperidide; lactam N-14) . Is its microsomal CLint at 1 µM below 30 µL/min/mg?
Criterion not met

API: query returns whether the molecule falls strictly under 30 µL/min/mg in microsomal CLint at 1 µM. Query: CC[C@@H]1NC(=O)[C@H](C(C)C)N(C)C(=O)[C@H](C)N(C)C(=O)[C@H](C(C)C)N(C)C(=O)[C@H](CC)N(C)C(=O)[C@H](Cc2ccccc2)N(C)C(=O)[C@H]([C@@H](C)O)N(C)C(=O)CNC(=O)[C@H](CC(C)C)N(C)C(=O)[C@H](C(C)C)NC(=O)[C@H](COC(C)(C)C)NC(=O)[C@H](CC(C)C)N(C)C(=O)[C@@H](C(C)C)NC(=O)C[C@@H](C)N(C)C1=O [pd068] (cyclo([Abu][NMedβ3hAla][dV][NMeL]S(tBu)V[NMeL]G[NMeT][NMeF][NMeAbu][NMeV][NMeA][NMeV]))
Criterion met

Here's an entry: CC[C@H]1C(=O)N(C)[C@H](C)CC(=O)N[C@H](C(C)C)C(=O)N(C)[C@@H](CC(C)C)C(=O)N(C)[C@@H](C(C)C)C(=O)N[C@@H](C)C(=O)N(C)[C@@H](CC(C)C)C(=O)NCC(=O)N(C)[C@@H]([C@@H](C)O)C(=O)N(C)[C@@H](Cc2ccccc2)C(=O)N(C)[C@@H](CC)C(=O)N[C@@H](COC(C)(C)C)C(=O)N(C)[C@@H](C)C(=O)N(C)[C@@H](C(C)C)C(=O)N1C [pd071] (cyclo(A[NMeL]G[NMeT][NMeF][NMeAbu]S(tBu)[NMeA][NMeV][NMeAbu][NMedβ3hAla][dV][NMeL][NMeV])) . Is its microsomal CLint at 1 µM below 30 µL/min/mg?
Criterion met

Given the entry CC[C@@H]1NC(=O)[C@H](Cc2ccccc2)N(C)C(=O)[C@H](COC(C)(C)C)NC(=O)[C@H](CC(C)C)N(C)C(=O)[C@H](C(C)C)NC(=O)CN(C)C(=O)[C@H]([C@@H](C)O)NC(=O)[C@H](CC(C)C)N(C)C(=O)[C@H](C(C)C)NC(=O)[C@H](Cc2ccccc2)N(C)C(=O)[C@H](C)N(C)C(=O)[C@@H](C)NC(=O)C[C@@H](C)NC(=O)[C@H](C(C)C)N(C)C1=O [pd008] (cyclo([Abu][NMeV][d(β3hA)][dA][NMeA][NMeF]V[NMeL]T[Sar]V[NMeL]S(tBu)[NMeF])) , would its reported microsomal CLint at 1 µM be below 30 µL/min/mg?
Criterion met
